SMYD2 Full-length (Homo sapiens, UniProt Q9NRG4) IC50 data
Sequence (Q9NRG4 whole entry): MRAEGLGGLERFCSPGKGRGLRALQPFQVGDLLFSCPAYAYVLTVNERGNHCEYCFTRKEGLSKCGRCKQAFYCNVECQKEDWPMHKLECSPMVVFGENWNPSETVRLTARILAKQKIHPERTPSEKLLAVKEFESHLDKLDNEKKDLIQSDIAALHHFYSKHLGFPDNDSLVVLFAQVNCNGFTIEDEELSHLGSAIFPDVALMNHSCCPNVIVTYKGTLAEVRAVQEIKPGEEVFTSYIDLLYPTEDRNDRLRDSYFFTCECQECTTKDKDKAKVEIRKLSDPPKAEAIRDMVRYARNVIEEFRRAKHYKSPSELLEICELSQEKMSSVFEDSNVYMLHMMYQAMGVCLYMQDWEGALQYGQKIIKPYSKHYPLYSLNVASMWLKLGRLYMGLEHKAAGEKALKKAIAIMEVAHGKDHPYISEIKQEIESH
metric: IC50 (µM)

Please review the following examples before continuing.
- Nc1ncnc2c1ncn2C1OC(CC(CCC(N)C(=O)O)NCc2ccccc2)C(O)C1O (stereo not shown) [Compound 110]: 4
- CCCN[C@@H](CC[C@H](N)C(=O)O)C[C@H]1O[C@@H](n2cnc3c(N)ncnc32)[C@H](O)[C@@H]1O [Compound 102]: 0.5

I = Nc1ncnc2c1ncn2C1OC(CC(N)CCCC(N)C(=O)O)C(O)C1O (stereo not shown) [Compound 300]
II = CCCN[C@@H](CC[C@H](N)C(=O)OC)C[C@H]1O[C@@H](n2ccc3c(N)ncnc32)C(O)C1O (stereo partly shown) [Compound 116e]
III = Nc1ncnc2c1ncn2C1OC(CC(CCC(N)C(=O)O)NCCNCCCCC(N)C(=O)O)C(O)C1O (stereo not shown) [Compound 104]
Incoming: Order the items by recorded IC50; the first position goes to the largest value. Use the labels to give the requested order.
Outgoing: I, II, III

----------
Biological target: SET7/9 Full-length (Homo sapiens, UniProt Q8WTS6)
Construct: SET7/9 Full-length
Sequence (Q8WTS6 1-366): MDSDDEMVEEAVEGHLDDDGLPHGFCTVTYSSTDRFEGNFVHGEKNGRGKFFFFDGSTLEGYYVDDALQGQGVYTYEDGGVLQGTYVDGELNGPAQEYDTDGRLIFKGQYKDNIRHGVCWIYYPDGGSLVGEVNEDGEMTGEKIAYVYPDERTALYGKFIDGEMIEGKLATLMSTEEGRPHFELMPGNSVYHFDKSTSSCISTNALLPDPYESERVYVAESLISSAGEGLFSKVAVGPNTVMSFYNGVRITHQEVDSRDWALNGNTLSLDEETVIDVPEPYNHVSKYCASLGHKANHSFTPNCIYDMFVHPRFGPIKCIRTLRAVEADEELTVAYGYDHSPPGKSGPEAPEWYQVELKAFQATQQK
Test: Filter-paper methylation assay, SET7/9
Details: 150 nM enzyme, H3 (1-21 aa) peptide, 3 h
pIC50: −log10 of the molar value.
metric: pIC50

Please review the following examples before continuing.
• CCCN[C@@H](CC[C@H](N)C(=O)O)C[C@H]1O[C@@H](n2cnc3c(N)ncnc32)[C@H](O)[C@@H]1O = 5.66
• CNC(CCC(N)C(=O)O)CC1OC(n2cnc3c(N)ncnc32)C(O)C1O (stereo not shown) = 5.85
• Nc1ncnc2c1ncn2C1OC(CC(CCC(N)C(=O)O)NCCNCCCCC(N)C(=O)O)C(O)C1O (stereo not shown) = 4.83
• NC[C@@H](CC[C@H](N)C(=O)O)C[C@H]1O[C@@H](n2cnc3c(N)ncnc32)C(O)[C@H]1O (stereo partly shown) = 4.56

P = Nc1ncnc2c1ncn2C1OC(CC(CCC(N)C(=O)O)NCCNCc2ccccc2)C(O)C1O (stereo not shown)
Q = CCCN[C@@H](CC[C@H](N)C(=O)OC)C[C@H]1O[C@@H](n2ccc3c(N)ncnc32)C(O)C1O (stereo partly shown) [Compound 116e]
R = COC(=O)C(N)CCC(CC1OC(n2cnc3c(N)ncnc32)C(O)C1O)NCCNC(=N)N (stereo not shown)
S = CCNC(CCC(N)C(=O)O)CC1OC(n2cnc3c(N)ncnc32)C(O)C1O (stereo not shown)
T = NCCNC(CCC(N)C(=O)O)CC1OC(n2cnc3c(N)ncnc32)C(O)C1O (stereo not shown)
Incoming: Order the items by recorded pIC50; the first position goes to the largest value. Use the labels to give the requested order.
Outgoing: R, S, Q, T, P

----------
Molecular target: GLP1 (951-1235) (Homo sapiens)
Sequence (Q9H9B1 982-1266 limits assumed): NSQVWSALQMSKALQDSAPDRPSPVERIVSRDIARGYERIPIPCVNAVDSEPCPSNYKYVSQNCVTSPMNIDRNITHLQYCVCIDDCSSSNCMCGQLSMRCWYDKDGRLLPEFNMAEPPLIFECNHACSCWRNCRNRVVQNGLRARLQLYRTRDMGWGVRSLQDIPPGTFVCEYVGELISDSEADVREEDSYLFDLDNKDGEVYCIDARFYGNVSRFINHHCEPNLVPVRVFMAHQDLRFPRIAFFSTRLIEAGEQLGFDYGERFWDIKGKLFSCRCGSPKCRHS
Assay: biochemical
Details: 10 nM enzyme, H3 (1-21 aa) peptide, 1 h
pIC50: −log10 of the molar value.
metric: pIC50

Please review the following examples before continuing.
• NC(=O)[C@@H](N)CC[C@@H](C[C@H]1O[C@@H](n2cnc3c(NC(=O)c4ccccc4)ncnc32)C(O)[C@H]1O)NCC(F)(F)F (stereo partly shown) = < 4.00
• CCCN[C@@H](CC[C@H](N)C(=O)O)C[C@H]1O[C@@H](n2cnc3c(N)ncnc32)[C@H](O)[C@@H]1O = < 4.00
• Nc1ncnc2c1ncn2C1OC(CC(CCC(N)C(=O)O)NCCNCCCCC(N)C(=O)O)C(O)C1O (stereo not shown) = < 4.00
• NCCNC(CCC(N)C(=O)O)CC1OC(n2cnc3c(N)ncnc32)C(O)C1O (stereo not shown) = < 4.00
• CCCN[C@@H](CC[C@H](N)C(=O)OC)C[C@H]1O[C@@H](n2ccc3c(N)ncnc32)C(O)C1O (stereo partly shown) [Compound 116e] = < 4.00
• CNC(CCC(N)C(=O)O)CC1OC(n2cnc3c(N)ncnc32)C(O)C1O (stereo not shown) = 3.43

Next:
Incoming: What does the record list as pIC50 for NC(=O)C(N)CCC(CC1OC(n2cnc3c(N)ncnc32)C(O)C1O)NCc1ccccc1 (stereo not shown) ?
Outgoing: < 4.00

----------
Target: SETD2 (1347-1711) (Homo sapiens)
Construct: SETD2 (1347-1711)
Sequence (Q9BYW2 1347-1711): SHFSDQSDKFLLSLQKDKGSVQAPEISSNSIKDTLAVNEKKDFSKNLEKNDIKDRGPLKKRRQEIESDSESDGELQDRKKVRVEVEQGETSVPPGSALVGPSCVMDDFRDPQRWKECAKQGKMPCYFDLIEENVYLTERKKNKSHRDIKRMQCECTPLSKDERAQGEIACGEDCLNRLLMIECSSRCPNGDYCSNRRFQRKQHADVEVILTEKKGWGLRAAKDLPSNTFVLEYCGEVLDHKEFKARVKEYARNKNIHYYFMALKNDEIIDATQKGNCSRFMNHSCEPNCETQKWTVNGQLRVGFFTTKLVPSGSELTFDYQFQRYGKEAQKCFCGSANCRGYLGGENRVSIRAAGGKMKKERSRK
Test: Filter-paper methylation assay, SETD2
Assay type: biochemical
Conditions: 250 nM enzyme, H3 (20-50 aa) peptide, 4 h
metric: IC50 (µM)

• CCCN[C@@H](CC[C@H](N)C(=O)O)C[C@H]1O[C@@H](n2cnc3c(N)ncnc32)[C@H](O)[C@@H]1O [Compound 102] = 0.8

1 = CNC(CCC(N)C(=O)O)CC1OC(n2cnc3c(N)ncnc32)C(O)C1O (centres unmarked) [Compound 101]
2 = CCNC(CCC(N)C(=O)O)CC1OC(n2cnc3c(N)ncnc32)C(O)C1O (centres unmarked) [Compound 100]
Incoming: Thinking about recorded IC50 values, which is higher, 1 or 2 ? Reply with the label of the item you choose.
Outgoing: 1
(1: 125 µM, 2: 8.2 µM)

P = NC[C@@H](CC[C@H](N)C(=O)O)C[C@H]1O[C@@H](n2cnc3c(N)ncnc32)C(O)[C@H]1O (some centres unmarked) [Compound 201]
Q = Nc1ncnc2c1ncn2C1OC(CC(N)CCCC(N)C(=O)O)C(O)C1O (centres unmarked) [Compound 300]
R = NCCNC(CCC(N)C(=O)O)CC1OC(n2cnc3c(N)ncnc32)C(O)C1O (centres unmarked) [Compound 105]
Incoming: Please list these in order of increasing IC50. Thank you! Use the labels to give the requested order.
Outgoing: R, Q, P

----------
G9a (913-1913) (Homo sapiens, UniProt Q96KQ7) IC50 data
Sequence (Q96KQ7 913-1193): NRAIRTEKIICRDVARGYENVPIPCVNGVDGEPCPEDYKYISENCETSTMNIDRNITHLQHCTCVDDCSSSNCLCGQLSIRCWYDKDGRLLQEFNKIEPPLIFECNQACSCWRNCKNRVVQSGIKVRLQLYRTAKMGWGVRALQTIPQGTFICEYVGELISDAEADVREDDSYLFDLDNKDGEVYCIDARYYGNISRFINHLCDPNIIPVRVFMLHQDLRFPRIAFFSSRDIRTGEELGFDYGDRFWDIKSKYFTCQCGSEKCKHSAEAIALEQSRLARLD

Please review the following examples before continuing.
- Nc1ncnc2c1ncn2[C@@H]1O[C@H](C[C@H](CC[C@H](N)C(=O)O)CNCc2ccccc2)[C@H](O)C1O (stereo partly shown): > 100 µM
- Nc1ncnc2c1ncn2C1OC(CC(CCC(N)C(=O)O)NCCNCc2ccccc2)C(O)C1O (stereo not shown): > 50 µM
- Nc1ncnc2c1ncn2C1OC(CC(N)CCCC(N)C(=O)O)C(O)C1O (stereo not shown): ~100 µM

Incoming: Test system G9a (913-1913) (Homo sapiens, UniProt Q96KQ7); read-out IC50; what value for CCCN[C@@H](CC[C@H](N)C(=O)O)C[C@H]1O[C@@H](n2cnc3c(N)ncnc32)[C@H](O)[C@@H]1O ?
Outgoing: > 100 µM

Incoming: Also NC[C@@H](CC[C@H](N)C(=O)O)C[C@H]1O[C@@H](n2cnc3c(N)ncnc32)C(O)[C@H]1O (stereo partly shown) , if possible.
Outgoing: > 100 µM

Incoming: Also NCCNC(CCC(N)C(=O)O)CC1OC(n2cnc3c(N)ncnc32)C(O)C1O (stereo not shown) , if possible.
Outgoing: > 100 µM

Incoming: Also CCCN[C@@H](CC[C@H](N)C(=O)OC)C[C@H]1O[C@@H](n2ccc3c(N)ncnc32)C(O)C1O (stereo partly shown) [Compound 116e] , if possible.
Outgoing: > 100 µM

Data origin: patent US9493501B2
